B1: library; a variant is named by its letters at N, in order (parent)
chain: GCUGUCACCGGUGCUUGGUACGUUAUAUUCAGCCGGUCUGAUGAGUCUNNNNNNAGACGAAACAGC

# Variants of: B1
# assay.name: normalized RNA/DNA level with ligand (relative to sTRSVctl = 100) (log10 (% of sTRSVctl)); HEK293T overexpressing SLC46A1; ligand concentration (+) RNA-Seq: 6 mM; higher = less ribozyme self-cleavage, higher mRNA level
# measurement.context: with (6R,S)-folinic acid; ligand present: yes
metric.name: normalized RNA/DNA level with ligand (log10)

[
  {
    "sequence.change": "GGGUGC",
    "endpoint.result": 2.01
  },
  {
    "sequence.change": "GACACG",
    "endpoint.result": 1.98
  },
  {
    "sequence.change": "GGGCUC",
    "endpoint.result": 2.1
  },
  {
    "sequence.change": "UUUGAC",
    "endpoint.result": 2.01
  },
  {
    "sequence.change": "UUGUUG",
    "endpoint.result": 2.05
  },
  {
    "sequence.change": "CAAGUG",
    "endpoint.result": 1.98
  },
  {
    "sequence.change": "AGGCCU",
    "endpoint.result": 2.06
  },
  {
    "sequence.change": "GUGAAG",
    "endpoint.result": 2.02
  },
  {
    "sequence.change": "GACGUC",
    "endpoint.result": 2.02
  },
  {
    "sequence.change": "UCACUC",
    "endpoint.result": 2.05
  }
]
